TESTED TARGET: CXCR4 receptor (human, UniProt P61073 1-352)
Sequence (P61073 whole entry): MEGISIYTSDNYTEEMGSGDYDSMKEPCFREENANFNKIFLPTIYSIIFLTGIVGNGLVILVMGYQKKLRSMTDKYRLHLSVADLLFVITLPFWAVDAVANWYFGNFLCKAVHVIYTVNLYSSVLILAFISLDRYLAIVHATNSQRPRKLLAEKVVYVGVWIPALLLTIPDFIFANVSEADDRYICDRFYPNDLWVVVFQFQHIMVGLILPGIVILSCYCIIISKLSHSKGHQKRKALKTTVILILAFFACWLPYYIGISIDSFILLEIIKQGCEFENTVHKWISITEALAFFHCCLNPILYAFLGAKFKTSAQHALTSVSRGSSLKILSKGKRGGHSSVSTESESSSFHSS
ASSAY NAME: cell-based or functional assay
Where no end group is shown, it is not given here. [ ]: non-standard residue; d: D form. The star is where a group is joined. Ala(3-Me-diazirin-3-yl) = CC1(C[C@H](N)C(=O)O)N=N1; Palmitoyl = CCCCCCCCCCCCCCCC(=O)*; Hyp = O=C(O)[C@@H]1C[C@@H](O)CN1; Nle = CCCC[C@H](N)C(=O)O
Please use YES whenever % Intrinsic Activity, calcium flux, CEM cells (Flexstation) is not below 90%, and NO whenever it is.

Check if % Intrinsic Activity, calcium flux, CEM cells (Flexstation) >= 90% (inclusive). Item: Pal-GYQKKLRS[Nle]TDKYRI [Compound No. 20 (Pal-GYQKKLRS(Nle)TDKYRI)] NO

Check if % Intrinsic Activity, calcium flux, CEM cells (Flexstation) >= 90% (inclusive). Item: Palmitoyl-GGYQKKHRSATDKYRL (not fully specified) [Compound No. 38 (Pal-GGYQKKHRSATDKYRL)] NO

Check if % Intrinsic Activity, calcium flux, CEM cells (Flexstation) >= 90% (inclusive). Item: Pal-GGYQKKLR[dP][Hyp]TDKYRL [Compound No. 36 (Pal-GGYQKKLRp(Hyp)TDKYRL)] NO

Check if % Intrinsic Activity, calcium flux, CEM cells (Flexstation) >= 90% (inclusive). Item: Pal-GGYQKK[Ala(3-Me-diazirin-3-yl)]RSATDKYRL [Compound No. 37 (Pal-GGYQKK(photoLeu)RSATDKYRL)] NO

Check if % Intrinsic Activity, calcium flux, CEM cells (Flexstation) >= 90% (inclusive). Item: Palmitoyl-MGYQKKLRSGTDKYRL (not fully specified) [Compound No. 19 (Pal-MGYQKKLRSGTDKYRL)] YES
